Cited source for all entries: the NIST ThermoML archive (doi:10.1016/j.jct.2011.06.007)

test: activity coefficient (dimensionless); of the first substance listed, at infinite dilution; xn = mol fraction of the nth substance listed
statedConditions: 338.15 K; 101 kPa; Liquid; Chromatography; x1 = 0
readoutKind: activity coefficient

[
  {
    "molecule": "C=CCCCC [hex-1-ene] + CCCC[N+]1(C)CCCC1.N#C[B-](C#N)(C#N)C#N",
    "activity coefficient": 7.16
  },
  {
    "molecule": "CCO [ethanol] + CCCC[N+]1(C)CCCC1.N#C[B-](C#N)(C#N)C#N",
    "activity coefficient": 1.09
  },
  {
    "molecule": "CC1CCCCC1 [methylcyclohexane] + CCCC[N+]1(C)CCCC1.N#C[B-](C#N)(C#N)C#N",
    "activity coefficient": 10.5
  }
]

a: C#CCCCCC [1-heptyne] + CCCC[N+]1(C)CCCC1.N#C[B-](C#N)(C#N)C#N
b: CCCC(C)=O [pentan-2-one] + CCCC[N+]1(C)CCCC1.N#C[B-](C#N)(C#N)C#N
Query block: For this pair, a and b , which shows a numerically higher activity coefficient? Give the chosen item's label as your response.
Result block: a
(a: 3.51, b: 0.721)

I: C1CCCCCCC1 [cyclooctane] + CCCC[N+]1(C)CCCC1.N#C[B-](C#N)(C#N)C#N
II: CC(C)OC(C)C [diisopropyl ether] + CCCC[N+]1(C)CCCC1.N#C[B-](C#N)(C#N)C#N
Query block: Pick the one with the larger activity coefficient: I vs II Indicate which entry you chose by stating its label.
Result block: I

P: CCCOCCC [dipropyl ether] + CCCC[N+]1(C)CCCC1.N#C[B-](C#N)(C#N)C#N
Q: CCC(C)(C)C [2,2-dimethylbutane] + CCCC[N+]1(C)CCCC1.N#C[B-](C#N)(C#N)C#N
R: C1CCOC1 [tetrahydrofuran] + CCCC[N+]1(C)CCCC1.N#C[B-](C#N)(C#N)C#N
S: CCCCCCCCCC [decane] + CCCC[N+]1(C)CCCC1.N#C[B-](C#N)(C#N)C#N
T: COC(C)(C)C [2-methoxy-2-methylpropane] + CCCC[N+]1(C)CCCC1.N#C[B-](C#N)(C#N)C#N
Query block: // ascending sort on recorded activity coefficient As an answer, provide the labels arranged in the order called for.
Result block: R, T, P, Q, S
(R: 0.639, T: 2.46, P: 5.51, Q: 13.2, S: 53.8)

I: C=CCCC [1-pentene] + CCCC[N+]1(C)CCCC1.N#C[B-](C#N)(C#N)C#N
II: CCC(C)CC [3-methylpentane] + CCCC[N+]1(C)CCCC1.N#C[B-](C#N)(C#N)C#N
III: C#CCCCC [1-hexyne] + CCCC[N+]1(C)CCCC1.N#C[B-](C#N)(C#N)C#N
IV: c1ccsc1 [thiophene] + CCCC[N+]1(C)CCCC1.N#C[B-](C#N)(C#N)C#N
Query block: Sequence the entries by activity coefficient, beginning with the highest number. Provide the labels, sequenced as the question asks.
Result block: II, I, III, IV
